targetUnderTest: Phosphodiesterase 4 (Homo sapiens, UniProt P27815+Q08499+Q07343+Q08493)
procedureText: Inhibitory activity against phosphodiesterase 4 (PDE4) isolated from canine lung
Type: protein assay, Canis lupus familiaris
experimentalContext: target entry is the homologue from another species
testReadout: IC50 (µM)

In the examples that follow, each entry is paired with its recorded IC50.
smilesInput | IC50 / µM
COC(=O)c1c(-c2cc(OC)c(OC)c(OC)c2)c2ccc(OCc3ccccn3)nc2c(=O)n1Cc1ccnc(C)c1.Cl | 30
COC(=O)c1c(-c2cc(OC)c(OC)c(OC)c2)c2ccnc(OCCc3ccccn3)c2c(=O)n1Cc1ccnc(C)c1.Cl | 50
COC(=O)c1c(-c2cc(OC)c(OC)c(OC)c2)c2ccnc(NCCO)c2c(=O)n1Cc1ccnc(C)c1.Cl | 0.45

[A] COC(=O)c1c(-c2cc(OC)c(OC)c(OC)c2)c2ccc(OCc3ncccn3)nc2c(=O)n1Cc1ccnc(C)c1.Cl
[B] COC(=O)c1c(-c2cc(OC)c(OC)c(OC)c2)c2ccnc(OCc3ncccn3)c2c(=O)n1Cc1ccnc(C)c1.Cl
**Query** Lab note: check whether A or B has the lower measured IC50. Answer = label.
**Result** A
(A: 19 µM, B: 67 µM)

###

targetUnderTest: Phosphodiesterase 6
procedureText: Inhibitory activity against Phosphodiesterase 6 isolated from bovine retina
Assay type: protein assay
testReadout: IC50 (nM)

As a guide, the following entries are already answered.
smilesInput | unitsText | measured
COC(=O)c1c(-c2cc(OC)c(OC)c(OC)c2)c2ccc(OCc3ncccn3)nc2c(=O)n1Cc1ccnc(C)c1.Cl | nM | 42
COC(=O)c1c(-c2cc(OC)c(OC)c(OC)c2)c2ccnc(OCc3ncccn3)c2c(=O)n1Cc1ccnc(C)c1.Cl | nM | 56

[P] COC(=O)c1c(-c2cc(OC)c(OC)c(OC)c2)c2ccnc(OCCc3ccccn3)c2c(=O)n1Cc1ccnc(C)c1.Cl
[Q] COC(=O)c1c(-c2cc(OC)c(OC)c(OC)c2)c2ccc(OCc3ccccn3)nc2c(=O)n1Cc1ccccn1.Cl
[R] COC(=O)c1c(-c2cc(OC)c(OC)c(OC)c2)c2ccc(OCc3cnccn3)nc2c(=O)n1Cc1ccnc(C)c1.Cl
[S] COC(=O)c1c(-c2cc(OC)c(OC)c(OC)c2)c2ccc(NCc3ccccn3)nc2c(=O)n1Cc1ccnc(C)c1.Cl
**Query** List by increasing IC50. Output the labels ranked as instructed.
**Result** R, S, P, Q
(R: 7.7 nM, S: 22 nM, P: 72 nM, Q: 230 nM)

###

targetUnderTest: cGMP-dependent 3',5'-cyclic phosphodiesterase (Bos taurus, UniProt P14099)
Sequence (P14099 whole entry): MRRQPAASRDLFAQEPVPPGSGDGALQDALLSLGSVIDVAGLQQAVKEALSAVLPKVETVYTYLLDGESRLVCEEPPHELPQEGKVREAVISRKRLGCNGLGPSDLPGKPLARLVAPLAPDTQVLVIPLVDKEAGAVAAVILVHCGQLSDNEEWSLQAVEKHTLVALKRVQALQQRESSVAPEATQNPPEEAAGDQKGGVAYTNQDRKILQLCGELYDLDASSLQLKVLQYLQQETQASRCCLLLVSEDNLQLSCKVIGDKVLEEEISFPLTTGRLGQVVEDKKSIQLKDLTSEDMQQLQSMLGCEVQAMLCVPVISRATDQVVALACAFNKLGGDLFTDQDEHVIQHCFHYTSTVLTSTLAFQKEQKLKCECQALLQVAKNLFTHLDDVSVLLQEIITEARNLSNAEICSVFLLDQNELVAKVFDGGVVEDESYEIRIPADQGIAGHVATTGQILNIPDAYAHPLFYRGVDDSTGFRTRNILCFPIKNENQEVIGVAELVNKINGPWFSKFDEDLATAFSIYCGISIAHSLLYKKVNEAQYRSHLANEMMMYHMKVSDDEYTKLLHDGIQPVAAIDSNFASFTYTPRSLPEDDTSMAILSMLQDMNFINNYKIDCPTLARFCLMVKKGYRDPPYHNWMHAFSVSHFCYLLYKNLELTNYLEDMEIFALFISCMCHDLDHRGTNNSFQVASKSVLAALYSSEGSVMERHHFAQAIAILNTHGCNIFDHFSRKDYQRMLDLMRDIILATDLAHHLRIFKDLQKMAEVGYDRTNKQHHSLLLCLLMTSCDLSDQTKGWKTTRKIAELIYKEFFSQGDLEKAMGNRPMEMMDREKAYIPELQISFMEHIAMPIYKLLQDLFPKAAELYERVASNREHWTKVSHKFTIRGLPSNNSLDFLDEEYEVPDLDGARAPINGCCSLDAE
procedureText: Inhibitory activity against phosphodiesterase-2 (PDE2) isolated from bovine adrenal gland
testReadout: IC50 (µM)

[a] COC(=O)c1c(-c2cc(OC)c(OC)c(OC)c2)c2ccc(OCc3ncccn3)nc2c(=O)n1Cc1ccnc(C)c1.Cl
[b] COC(=O)c1c(-c2cc(OC)c(OC)c(OC)c2)c2ccc(OCc3ccccn3)nc2c(=O)n1Cc1ccnc(C)c1.Cl
[c] COC(=O)c1c(-c2cc(OC)c(OC)c(OC)c2)c2ccnc(NCCO)c2c(=O)n1Cc1ccnc(C)c1.Cl
[d] COC(=O)c1c(-c2cc(OC)c(OC)c(OC)c2)c2ccc(OCc3ccccn3)cc2c(=O)n1-c1ccc(N)cc1.O=S(=O)(O)O
**Query** Order the records so the highest IC50 appears first and the lowest last. When ranking, write the labels in the order the request describes.
**Result** c, b, a, d
